- testTarget: c-Cbl (Homo sapiens (Human))
- Sequence (P22681 47-435): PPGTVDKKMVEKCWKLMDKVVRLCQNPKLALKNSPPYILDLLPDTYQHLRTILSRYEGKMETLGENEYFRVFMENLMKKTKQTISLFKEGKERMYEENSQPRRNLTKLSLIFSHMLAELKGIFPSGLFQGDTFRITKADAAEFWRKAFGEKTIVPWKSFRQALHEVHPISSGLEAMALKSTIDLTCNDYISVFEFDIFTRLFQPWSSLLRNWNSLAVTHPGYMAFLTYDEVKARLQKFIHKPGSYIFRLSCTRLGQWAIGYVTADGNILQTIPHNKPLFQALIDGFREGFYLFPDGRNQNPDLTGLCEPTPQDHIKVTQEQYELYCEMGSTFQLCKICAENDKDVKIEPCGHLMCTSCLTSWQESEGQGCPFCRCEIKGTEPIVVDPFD
- methodNotes: C-cbl LCK Ub TR-FRET assay (C-cbl Lck HTRF)
- Format: biochemical
measuredParameter: log10 IC50 (log10 of the value in nM)

Cn1cnnc1[C@H](F)C1(c2cccc(NC(=O)c3cc(CN4CC(C)(F)C4)cc(C(F)(F)F)n3)c2)COC1 :: 2.52
Cn1cnnc1[C@@H](F)C1(c2cccc(NC(=O)c3cc(CN4CC(C)(F)C4)cc(C(F)(F)F)n3)c2)COC1 :: 2.62
Cn1cnnc1[C@H](F)[C@]1(c2cccc(NC(=O)c3cccc(C(F)(F)F)n3)c2)CCO1 :: 4.23
C[C@H](c1cc(C(=O)Nc2cccc(C3([C@H](F)c4nncn4C)COC3)c2)nc(C2CC2)c1)N1CCC2(CC2)C1 :: 1.30
Cn1cnnc1[C@H](F)[C@@](C)(F)c1cccc(NC(=O)c2cc(CN3CC(C)(F)C3)nc(C3CC3)n2)c1 :: 3.69
C[C@H](c1cc(C(=O)Nc2cccc(C3(Cc4nncn4C)COC3)c2)nc(C(F)(F)F)c1)N1CCC2(CC2)C1 :: 2.11
C[C@H](c1cc(C(=O)Nc2cccc(C3([C@@H](F)c4nncn4C)COC3)c2)nc(C2CC2)c1)N1CCC2(CC2)C1 :: 1.67
